biological target: trypsin (Homo sapiens, UniProt P07477+P07478+P35030); assay: Stability of the compound assessed as trypsin (unknown origin)-mediated degradation by measuring half life using pH 7.4 PBS buffer by HPLC analysis; type: ADME, protein assay; details: trypsin in PBS buffer
Where a SMILES comes first, the peptide text is derived from it. Bridges are numbered along the chain shown (N, C = ends). [ ]: non-standard residue; d: D form. S5 = C=CCCC[C@](C)(N)C(=O)O
quantity: half-life (min)
Answer in min, number only, no unit symbol.

Measured half-life of CC(C)C[C@H](NC(=O)[C@H](CC(C)C)NC(=O)[C@H](CC(=O)O)NC(=O)[C@H](CCCCN)NC(=O)[C@H](Cc1ccccc1)NC(=O)CN)C(=O)N[C@@H](CCCCN)C(=O)NCC(=O)N[C@@H](C)C(=O)N[C@@H](C)C(=O)N[C@@H](CCCCN)C(=O)N[C@@]1(C)CCC/C=C\CCC[C@@](C)(C(=O)N[C@H](C(=O)N[C@@H](CC(C)C)C(=O)N[C@@H](Cc2ccccc2)C(N)=O)C(C)C)NC(=O)[C@H](CCCCN)NC(=O)[C@H](C(C)C)NC(=O)[C@H](CC(C)C)NC1=O (H-GFKDLLKGAAK[S5]LVK[S5]VLF-NH2; staple (Z) 12-16) : 36

====

assay: Hemolytic activity in rabbit red blood cells assessed as hemoglobin release; assay type: ADME, cell-based, Oryctolagus cuniculus, Erythrocyte
Where a SMILES comes first, the peptide text is derived from it. Bridges are numbered along the chain shown (N, C = ends). [ ]: non-standard residue; d: D form. S8 = C=CCCCCCC[C@](C)(N)C(=O)O; S5 = C=CCCC[C@](C)(N)C(=O)O
Reported HC50 values for the following compounds.
Reply with the number, then its unit.

compound	quantity	observed.result
CC(C)C[C@H](NC(=O)[C@H](CC(C)C)NC(=O)[C@H](CC(=O)O)NC(=O)[C@H](CCCCN)NC(=O)[C@H](Cc1ccccc1)NC(=O)CN)C(=O)N[C@@H](CCCCN)C(=O)NCC(=O)N[C@@H](C)C(=O)N[C@@H](C)C(=O)N[C@@H](CCCCN)C(=O)N[C@@]1(C)CCC/C=C\CCC[C@@](C)(C(=O)N[C@H](C(=O)N[C@@H](CC(C)C)C(=O)N[C@@H](Cc2ccccc2)C(N)=O)C(C)C)NC(=O)[C@H](CCCCN)NC(=O)[C@H](C(C)C)NC(=O)[C@H](CC(C)C)NC1=O (H-GFKDLLKGAAK[S5]LVK[S5]VLF-NH2; staple (Z) 12-16)	HC50	40.6 µM

Measured HC50 of CC(C)C[C@H](NC(=O)[C@H](C)NC(=O)[C@H](CCCCN)NC(=O)[C@H](C)NC(=O)[C@H](C)NC(=O)[C@]1(C)CCC/C=C\CCC[C@](C)(NC(=O)[C@H](CCCCN)NC(=O)[C@H](Cc2ccccc2)NC(=O)CN)C(=O)N[C@@H](CC(C)C)C(=O)N[C@@H](CC(C)C)C(=O)N[C@@H](CCCCN)C(=O)N1)C(=O)N[C@H](C(=O)N[C@@H](CCCCN)C(=O)N[C@H](C(=O)N[C@H](C(=O)N[C@@H](CC(C)C)C(=O)N[C@@H](Cc1ccccc1)C(N)=O)C(C)C)[C@@H](C)O)C(C)C (H-GFK[S5]LLK[S5]AAKALVKTVLF-NH2; staple (Z) 4-8) : 79.9 µM

Measured HC50 of CC(C)C[C@@H]1NC(=O)[C@H](C)NC(=O)[C@H](CCCCN)NC(=O)[C@H](C)NC(=O)[C@@](C)(NC(=O)CNC(=O)[C@H](CCCCN)NC(=O)[C@H](CC(C)C)NC(=O)[C@H](CC(C)C)NC(=O)[C@H](CC(=O)O)NC(=O)[C@H](CCCCN)NC(=O)[C@H](Cc2ccccc2)NC(=O)CN)CCCCCC/C=C/CCC[C@@](C)(C(=O)N[C@H](C(=O)N[C@@H](CC(C)C)C(=O)N[C@@H](Cc2ccccc2)C(N)=O)C(C)C)NC(=O)[C@H](CCCCN)NC(=O)[C@H](C(C)C)NC1=O (H-GFKDLLKG[S8]AKALVK[S5]VLF-NH2; staple (E) 9-16) : 90.5 µM
